assay: Cytotoxicity on Molt-4 cells (MTT); format: cell-based; conditions: human, concentration 10 μM, read-out: Percent Viability
Task for the reader: assign each of the following molecules its reported viability at 24 h, 10 µM.
Reply numerically in %, unit not repeated.

Q. Would you kindly share the measured viability at 24 h, 10 µM for C=C(C)[C@@H]1CC[C@]2(C(=O)O)CC[C@]3(C)C(CC[C@@H]4[C@@]5(C)[C@@H](C(=O)O)[C@H](OC(=O)CC(C)(C)C(=O)O)C(C)(C)[C@@H]5CC[C@]43C)C12 (some centres unmarked) ?
A. 82.8

Q. Would you kindly share the measured viability at 24 h, 10 µM for C=C(C)[C@@H]1CC[C@]2(C(=O)O)CC[C@]3(C)[C@H](CC[C@@H]4[C@@]5(C)CC[C@H](OC(=O)[C@@H]6C[C@H](C(=O)O)C6(C)C)C(C)(C)[C@@H]5CC[C@]43C)[C@@H]12 ?
A. 102

###

assay: in vitro; assay type: cell-based; details: human
QUANTITY: CC50

Q. Would you kindly share the measured CC50 for C=C(C)[C@@H]1CC[C@]2(C(=O)N[C@@H]3C[C@H](C(=O)N4CCCC4)C3(C)C)CC[C@]3(C)[C@H](CC[C@@H]4[C@@]5(C)CC[C@H](OC(=O)CC(C)(C)C(=O)O)C(C)(C)[C@@H]5CC[C@]43C)[C@@H]12 [Example 45] ?
A. > 20 µM

###

Test system: HIV-1 strain CNHN24
Assay: Anti-HIV-1 luciferase indicator assay in MT2 cells, CNHN24
Format: cell-based
Settings: MT2 cells, viral strain CNHN24
Protocol: Compound was dissolved in DMSO to make 30 mM stock. Then the 30 mM stock is further diluted to 4 mM using DMSO. […] MT2 cells were mixed with HIV-1 strain NL4-3 (or IIIB, or CNHN24) and the cell/virus mixture was added to the aforementioned antivirus assay plates. […] The expression level of luciferase was related to HIV-1 infectivity and was measured by Bright-Glo kit (Promega). Therapeutic index (TI) was determined by taking ratio of CC50/IC50
Task for the reader: assign each of the following compounds its reported TI / Safety Index (CC50/IC50).
# print the numeric value only

Q. Record C=C(C)[C@@H]1CC[C@]2(C(=O)N[C@@H]3CC[C@H](CN4CCN(CC)CC4)C3)CC[C@]3(C)[C@H](CC[C@@H]4[C@@]5(C)CC[C@H](OC(=O)CC(C)(C)C(=O)O)C(C)(C)[C@@H]5CC[C@]43C)[C@@H]12 : what is its TI / Safety Index (CC50/IC50) with HIV-1 strain CNHN24?
A. 4000

Q. Record C=C(C)[C@@H]1CC[C@]2(C(=O)O)CC[C@]3(C)[C@H](CC[C@@H]4[C@@]5(C)CC[C@H](OC(=O)[C@@H]6C[C@H](C(=O)O)C6(C)C)C(C)(C)[C@@H]5CC[C@]43C)[C@@H]12 : what is its TI / Safety Index (CC50/IC50) with HIV-1 strain CNHN24?
A. 91

Q. Record C=C(C)[C@@H]1CC[C@]2(C(=O)N[C@H]3C[C@@H](C(=O)N4CCOCC4)C3(C)C)CC[C@]3(C)[C@H](CC[C@@H]4[C@@]5(C)CC[C@H](O)C(C)(C)[C@@H]5CC[C@]43C)[C@@H]12 : what is its TI / Safety Index (CC50/IC50) with HIV-1 strain CNHN24?
A. 7

Q. Record C=C(C)[C@@H]1CC[C@]2(C(=O)N3CCC(Cc4ccccc4)(C(=O)OCC)CC3)CC[C@]3(C)[C@H](CC[C@@H]4[C@@]5(C)CC[C@H](OC(=O)CC(C)(C)C(=O)O)C(C)(C)[C@@H]5CC[C@]43C)[C@@H]12 : what is its TI / Safety Index (CC50/IC50) with HIV-1 strain CNHN24?
A. 20

Q. Record C=C(C)[C@@H]1CC[C@]2(C(=O)N[C@@H]3CC[C@H](CN4CCC(Cc5ccccc5)CC4)C3)CC[C@]3(C)[C@H](CC[C@@H]4[C@@]5(C)CC[C@H](OC(=O)CC(C)(C)CC(=O)O)C(C)(C)[C@@H]5CC[C@]43C)[C@@H]12 : what is its TI / Safety Index (CC50/IC50) with HIV-1 strain CNHN24?
A. 153

Q. Record C=C(C)[C@@H]1CC[C@]2(C(=O)O)CC[C@]3(C)[C@H](CC[C@@H]4[C@@]5(C)CC[C@H](OC(=O)[C@H]6C[C@@H](C(=O)O)C6(C)C)C(C)(C)[C@@H]5CC[C@]43C)[C@@H]12 : what is its TI / Safety Index (CC50/IC50) with HIV-1 strain CNHN24?
A. 769

Q. Record C=C(C)[C@@H]1CC[C@]2(C(=O)N3CCC(CC)(C(=O)OCC)CC3)CC[C@]3(C)[C@H](CC[C@@H]4[C@@]5(C)CC[C@H](OC(=O)CC(C)(C)C(=O)O)C(C)(C)[C@@H]5CC[C@]43C)[C@@H]12 : what is its TI / Safety Index (CC50/IC50) with HIV-1 strain CNHN24?
A. 47

Q. Record C=C(C)[C@@H]1CC[C@]2(C(=O)N3CCN(CC)CC3)CC[C@]3(C)[C@H](CC[C@@H]4[C@@]5(C)CC[C@H](OC(=O)C6CC(C(=O)O)C6(C)C)C(C)(C)[C@@H]5CC[C@]43C)[C@@H]12 (some centres unmarked) : what is its TI / Safety Index (CC50/IC50) with HIV-1 strain CNHN24?
A. 833
